# target.entity: EP300 (P300(1048-1664)) (Homo sapiens, UniProt Q09472)
# Construct: P300(1048-1664)
# Sequence (Q09472 1048-1664): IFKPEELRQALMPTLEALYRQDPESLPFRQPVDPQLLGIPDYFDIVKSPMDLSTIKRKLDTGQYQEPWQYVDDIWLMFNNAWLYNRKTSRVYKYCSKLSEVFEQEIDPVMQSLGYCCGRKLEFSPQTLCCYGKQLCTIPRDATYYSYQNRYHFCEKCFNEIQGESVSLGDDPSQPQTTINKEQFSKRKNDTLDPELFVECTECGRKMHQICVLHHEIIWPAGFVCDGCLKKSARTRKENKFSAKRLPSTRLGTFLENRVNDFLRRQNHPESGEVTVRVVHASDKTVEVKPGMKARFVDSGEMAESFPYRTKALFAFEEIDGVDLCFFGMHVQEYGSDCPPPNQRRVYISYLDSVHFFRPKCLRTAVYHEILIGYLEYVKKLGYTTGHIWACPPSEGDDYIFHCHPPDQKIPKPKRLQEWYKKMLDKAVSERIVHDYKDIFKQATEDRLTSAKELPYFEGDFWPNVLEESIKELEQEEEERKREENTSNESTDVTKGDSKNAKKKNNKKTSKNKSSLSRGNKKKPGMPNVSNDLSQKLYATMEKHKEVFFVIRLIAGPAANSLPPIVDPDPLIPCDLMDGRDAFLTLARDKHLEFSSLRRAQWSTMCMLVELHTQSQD
# measurement.protocol: Biochemical assay for EP300, SAMDI
# condition.details: EP300, SAMDI; read-out: EP300 Biochemistry IC50
result.type: IC50 (nM)
A number alone suffices; assume nM.

// known answers, use as guide
{"structure.as.smiles": "CCc1ncc(CN(C)C(=O)c2cc(-c3ccc(NCCNC)c(C)n3)nc3ccc(COC)cc23)n1C", "target.entity": "EP300 (P300(1048-1664)) (Homo sapiens, UniProt Q09472)", "readout.unit": "nM", "IC50": 35}
{"structure.as.smiles": "CCn1ncc(CN(C)C(=O)c2cc(-c3ccc(NCC(=O)NC)c(C)n3)nc3ccc(Cl)cc23)c1C", "target.entity": "EP300 (P300(1048-1664)) (Homo sapiens, UniProt Q09472)", "readout.unit": "nM", "IC50": 37}
{"structure.as.smiles": "CCn1ncc(CN(C)C(=O)c2nc(-c3ccc(OCCNC(C)=O)cc3Cl)nc3ccc(Cl)cc23)c1C", "target.entity": "EP300 (P300(1048-1664)) (Homo sapiens, UniProt Q09472)", "readout.unit": "nM", "IC50": 580}
{"structure.as.smiles": "CCc1ncc(CN(C)C(=O)c2cc(-c3cc(C(=O)NC)n(C)n3)nc3ccc(COC)cc23)n1C", "target.entity": "EP300 (P300(1048-1664)) (Homo sapiens, UniProt Q09472)", "readout.unit": "nM", "IC50": 15.6}
{"structure.as.smiles": "CCn1ncc(CN(C)C(=O)c2cc(-c3cc(NC(=O)CNC)cc(C)n3)nc3ccc(Cl)cc23)c1C", "target.entity": "EP300 (P300(1048-1664)) (Homo sapiens, UniProt Q09472)", "readout.unit": "nM", "IC50": 42}
{"structure.as.smiles": "CCn1ncc(CN(C)C(=O)c2nc(-c3ccc4c(N)[nH]nc4c3C)nc3ccc(Cl)cc23)c1C", "target.entity": "EP300 (P300(1048-1664)) (Homo sapiens, UniProt Q09472)", "readout.unit": "nM", "IC50": 300}

Attention now turns to another entry.
# compound CCn1ncc(CN(C)C(=O)c2nc(-c3cc(C(=O)NCCN4CCCC4)on3)nc3ccc(Cl)cc23)c1C ; its IC50 = 15000

###

# target.entity: CREBBP (1084-1701) (Homo sapiens)
# Construct: measured in the following biochemical assay using CREBBP (1084-1701); purchased
# Sequence (Q92793 1084-1701): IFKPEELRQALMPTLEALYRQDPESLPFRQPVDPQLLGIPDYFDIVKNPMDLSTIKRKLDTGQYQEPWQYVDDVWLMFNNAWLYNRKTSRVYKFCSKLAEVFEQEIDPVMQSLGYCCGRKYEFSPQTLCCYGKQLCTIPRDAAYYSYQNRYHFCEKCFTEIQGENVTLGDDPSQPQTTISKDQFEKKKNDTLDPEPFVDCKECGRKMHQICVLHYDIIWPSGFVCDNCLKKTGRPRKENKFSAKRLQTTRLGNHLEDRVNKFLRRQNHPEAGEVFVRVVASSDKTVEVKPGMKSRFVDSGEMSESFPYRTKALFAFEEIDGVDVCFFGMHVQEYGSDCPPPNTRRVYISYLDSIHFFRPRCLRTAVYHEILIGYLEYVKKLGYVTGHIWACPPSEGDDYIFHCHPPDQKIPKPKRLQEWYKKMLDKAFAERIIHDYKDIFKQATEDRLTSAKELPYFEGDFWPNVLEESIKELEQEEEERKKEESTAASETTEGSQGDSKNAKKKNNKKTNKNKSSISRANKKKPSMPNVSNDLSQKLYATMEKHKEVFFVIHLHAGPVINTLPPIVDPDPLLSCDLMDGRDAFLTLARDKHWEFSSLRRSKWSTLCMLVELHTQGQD
# measurement.protocol: Biochemical assay for CREBBP (1084-1701), SAMDI
# condition.details: SAMDI, read-out: CREBBP Biochemistry IC50
result.type: pIC50
Field pIC50 (float): negative decimal logarithm of the concentration in molar.

{"compound": "CCn1ncc(CN(C)C(=O)c2cc(-c3ccc(NC4CNC4)c(C)n3)nc3ccc(Cl)cc23)c1C [Compound 389]", "pIC50": 7.77}
{"compound": "CCn1ncc(CN(C)C(=O)c2nc(-c3cc(C)c4[nH]c(=O)[nH]c4c3)nc3ccc(Cl)cc23)c1C [Compound 436]", "pIC50": 8.14}
{"compound": "CCn1ncc(CN(C)C(=O)c2nc(-c3ccc(NC4CCOCC4)c(OC)c3)nc3ccc(Cl)cc23)c1C [Compound 64]", "pIC50": 7.10}
{"compound": "CCn1ncc(CN(C)C(=O)c2cc(-c3ccc(NCCO)c(C)n3)nc3ccc(Cl)cc23)c1C [Compound 521]", "pIC50": 8.00}
{"compound": "CCc1ncc(CN(C)C(=O)c2nc(-c3cc4c(NC)n[nH]c4cc3C)nc3ccc(Cl)cc23)n1C [Compound 563]", "pIC50": 7.87}

pIC50 in this record for CCn1ncc(CN(C)C(=O)c2cc(-c3ccc(NCCNC)nn3)nc3ccc(Cl)cc23)c1C [Compound 504] : 5.24

So for CCn1ncc(CN(C)C(=O)c2cc(-c3ccc(N(C)CCN)nn3)nc3ccc(Cl)cc23)c1C [Compound 505] , the logged pIC50 turned out to be 5.34
